Target system: CD94/NKG2C (Homo sapiens, UniProt P26717+Q13241)
Sequence (P26717 94-231 limits assumed): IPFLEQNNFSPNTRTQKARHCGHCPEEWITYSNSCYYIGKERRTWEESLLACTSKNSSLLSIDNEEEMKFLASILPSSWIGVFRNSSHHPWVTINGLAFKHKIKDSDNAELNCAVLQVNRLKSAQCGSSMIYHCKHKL
Sequence (Q13241 32-179 limits assumed): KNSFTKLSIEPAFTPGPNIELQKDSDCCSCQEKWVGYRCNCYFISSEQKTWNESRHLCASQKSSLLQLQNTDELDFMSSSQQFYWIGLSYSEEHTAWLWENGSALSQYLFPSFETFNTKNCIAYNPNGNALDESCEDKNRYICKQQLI
Protocol summary: Steady-state surface plasmon resonance of peptide-HLA-E complex with CD94/NKG2C
Format: binding
Conditions used: CD94/NKG2C concentration 0 μM
Where no end group is shown, it is not given here.
Metric name: binding of peptide-HLA-E complex to CD94/NKG2C normalized to a fitted Rmax
// no unit, no text: just the number

Read the entry TAPARTMFL [human13, TAPARTMFL] and write its reported binding of peptide-HLA-E complex to CD94/NKG2C normalized to a fitted Rmax.
0.007

Read the entry TLPKRGLFL [human2, TLPKRGLFL] and write its reported binding of peptide-HLA-E complex to CD94/NKG2C normalized to a fitted Rmax.
−0.005

Read the entry VNPGRSLFL [human5, VNPGRSLFL] and write its reported binding of peptide-HLA-E complex to CD94/NKG2C normalized to a fitted Rmax.
−0.001

Read the entry TGPWRSLWI [human3, TGPWRSLWI] and write its reported binding of peptide-HLA-E complex to CD94/NKG2C normalized to a fitted Rmax.
0.006

Read the entry QMPSRSLLF [human1, QMPSRSLLF] and write its reported binding of peptide-HLA-E complex to CD94/NKG2C normalized to a fitted Rmax.
−0.007
